The measured values listed here are drawn from patent US11104680B2.

system: UniProt Q14123
Sequence (Q14123 whole entry): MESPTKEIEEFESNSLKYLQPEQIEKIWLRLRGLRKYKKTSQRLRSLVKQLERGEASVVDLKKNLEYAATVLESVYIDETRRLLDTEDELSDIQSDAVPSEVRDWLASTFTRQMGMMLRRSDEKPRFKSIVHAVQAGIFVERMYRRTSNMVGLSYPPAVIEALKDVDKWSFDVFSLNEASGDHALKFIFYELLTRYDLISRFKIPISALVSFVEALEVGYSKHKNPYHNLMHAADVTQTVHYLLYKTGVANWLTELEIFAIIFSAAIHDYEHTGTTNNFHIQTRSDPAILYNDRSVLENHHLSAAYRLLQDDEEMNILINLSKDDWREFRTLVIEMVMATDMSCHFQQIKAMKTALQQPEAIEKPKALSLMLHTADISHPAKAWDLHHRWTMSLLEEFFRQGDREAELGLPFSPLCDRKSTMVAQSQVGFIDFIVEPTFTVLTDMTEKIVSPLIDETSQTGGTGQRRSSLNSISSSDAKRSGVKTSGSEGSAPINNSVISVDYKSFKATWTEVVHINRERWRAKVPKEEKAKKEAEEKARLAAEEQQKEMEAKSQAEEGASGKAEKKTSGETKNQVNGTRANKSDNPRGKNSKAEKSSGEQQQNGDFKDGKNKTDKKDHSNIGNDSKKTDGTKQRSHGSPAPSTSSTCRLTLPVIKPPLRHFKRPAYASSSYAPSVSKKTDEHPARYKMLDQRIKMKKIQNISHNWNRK

compound	IC50, nM
Cc1nc2c(cnn2C2CCOCC2)c(=O)n1CC1CCCCC1 [Example 3]	29
O=c1c2cnn(C3CCOCC3)c2nc(Cc2ccccc2)n1CC1CCCCC1 [Example 1]	120
CCCn1ncc2c(=O)n(Cc3ccc(OC)cc3)c(C)cc21 [Example 20]	233
COc1ccc(Cn2c(C)cc3c(cnn3C3COC3)c2=O)cc1 [Example 28]	2180
COc1ccc(Cn2c(C(C)C)nc3c(cnn3C3CCOCC3)c2=O)cc1 [Example 8]	1320
CCc1nc2c(cnn2C2CCOCC2)c(=O)n1Cc1ccc(OC)cc1 [Example 6]	140
COc1ccc(Cn2c(C)cc3c(cnn3C3CCOC3)c2=O)cc1 (stereo not shown) [Example 22]	1200

* * *

Item-by-item account of inhibition at 10 µM
system: PDE9 (Homo sapiens (Human))
Sequence (O76083 whole entry): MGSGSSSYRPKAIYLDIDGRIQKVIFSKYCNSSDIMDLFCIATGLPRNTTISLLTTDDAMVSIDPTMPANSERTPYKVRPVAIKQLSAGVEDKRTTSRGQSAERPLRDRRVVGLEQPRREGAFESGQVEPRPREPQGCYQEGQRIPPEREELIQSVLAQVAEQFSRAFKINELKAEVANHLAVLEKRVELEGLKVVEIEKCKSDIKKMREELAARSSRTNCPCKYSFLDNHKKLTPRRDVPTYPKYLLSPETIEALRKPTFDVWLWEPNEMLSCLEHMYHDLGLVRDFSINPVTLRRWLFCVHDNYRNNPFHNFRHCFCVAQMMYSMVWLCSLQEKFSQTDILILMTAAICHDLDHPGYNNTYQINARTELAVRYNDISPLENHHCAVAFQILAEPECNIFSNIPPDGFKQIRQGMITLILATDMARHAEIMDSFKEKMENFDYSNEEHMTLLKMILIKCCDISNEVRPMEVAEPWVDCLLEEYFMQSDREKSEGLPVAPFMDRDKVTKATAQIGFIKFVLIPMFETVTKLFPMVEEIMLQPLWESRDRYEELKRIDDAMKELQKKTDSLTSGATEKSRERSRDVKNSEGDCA
assayDetails: PDE9 inhibition assay, SPA;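 further: enzyme reaction incubated for 1 h, then stopped by adding yttrium silicate scintillation proximity beads for the read-out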
Format: biochemical
testConditions: 10 microM compound; 10 nM 3H-cAMP

compound	inhibition at 10 µM / %
CCCn1ncc2c(=O)n(CC3CCCCC3)c(C)nc21	-16
COc1ccc(Cn2c(C)cc3c(cnn3C3COC3)c2=O)cc1	14
Cc1ccc(Cn2c(C)cc3c(cnn3C3CCOCC3)c2=O)cc1	-1
CCCn1ncc2c(=O)n(Cc3ccc(OC)cc3)c(C)cc21	19
Cc1cc2c(cnn2C2CCOCC2)c(=O)n1Cc1ccc(F)cc1	-13
Cc1nc2c(cnn2C2CCOCC2)c(=O)n1CC1CCCCC1	29
COc1ccc(Cn2c(C)nc3c(cnn3C3CCOCC3)c2=O)cc1	10
CCn1ncc2c(=O)n(Cc3ccc(OC)cc3)c(C)cc21	19
COc1ccc(Cn2c(C)cc3c(cnn3C(C)C)c2=O)cc1	-14
COc1ccc(Cn2c(C)cc3c(cnn3[C@@H]3CCO[C@@H]3C)c2=O)cc1 (relative stereo)	13
COc1ccc(Cn2c(C)cc3c(cnn3C3CC3)c2=O)cc1	-6
COc1ccc(Cn2c(C)cc3c(cnn3C3(C)CCOCC3)c2=O)cc1	26
Cc1cc2c(cnn2C2CCOCC2)c(=O)n1Cc1ccc2c(c1)OCO2	-2
COc1ccc(Cn2c(C(C)C)nc3c(cnn3C3CCOCC3)c2=O)cc1	7
Cc1cc2c(cnn2C2CCOCC2)c(=O)n1Cc1cccc(Cl)c1	-15
